experiment: soluble fraction after stress (log2 fold change); higher = more stays soluble; pooled small domains, quantitative proteomics; conditions: stress: 75 degC;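 note: 20 min heating vs room temperature control held 20 min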
measuredParameter: soluble fraction (log2)

HMTGEDIKKVILREYAREKSLLSIFHELSKVNSNVTLEVIKDIITNIDKLPNDLLQYFKEESSFYQKNKN = -1.46

Problem: Check the records and state soluble fraction (log2) for HMIMTEKEKKLLNRYIMHDTIHKLYHEQNKSMRWIADNLGINFRTVQKYLDMDSGEFQKYSESISNR
Result: -0.97

Problem: For HMTIENTDTFLETLWEQVQRASVDENGIITSRVLIWDEGTKLDEILSWFDKRHSLGALYLQFG , write its soluble fraction (log2).
Result: -2.66

Problem: Using known records, supply soluble fraction (log2) for HMEDKFEYQGERKSLIYPTSFSELTEALGVRNMLQSIIDFATRDEDTSGYEEMKERQNEYIQEYL
Result: -0.0262

Problem: Look up and state reported soluble fraction (log2) for HMQNAETPDVAAEFRTWTSADGQFQVIAKLVKLDGESVHLERQDDGRQIAVPLGKLSSEDRLFLRGVRP
Result: -0.184

Problem: Return soluble fraction (log2) for the following sequence: HMGTDFRPVFQYVDELVRAGEFTNLKGMIYFTDGRGIFPEKKPDYDAAFVFLDDGYDPPDVPVWAIKLVL
Result: -0.0422

----------
experiment: soluble fraction after stress (log2 fold change); higher = more stays soluble; pooled small domains, quantitative proteomics; settings: stress: 75 degC
The threshold is inclusive: soluble fraction (log2) of exactly -0.3 counts as 1; values below receive 0.

HMHPNPLTEQEIAVLKGIAQGLSNQEIADQLYLSNGTVRNYVTNILSKLDAGNRTEAANIAKESGW = 1

Okay, next one:
Problem: Identify whether the reported soluble fraction (log2) of the following sequence is -0.3 or greater: HMNADLDIQNVNGNTPLWEAVMRYRGDGFFIEQLLKNGANPDIKNNYGVSPKSLARTIANYDVRRFFN
Result: 1

----------
test: soluble fraction after stress (log2 fold change); higher = more stays soluble; pooled small domains, quantitative proteomics; conditions: stress: 75 degC
Cut-off -0.8 on soluble fraction (log2), inclusive. At or above means label 1; below means label 0.

Problem: Threshold query (soluble fraction (log2) >= -0.8) on HMSSEITYDKFIEMVDKDQVKEVTLQSGVLTVVPKIQKSYYQNASYKVNQMEDVDALTKRLEGTGIVFHY
Result: label 1

Problem: Check this sequence for soluble fraction (log2) at or above -0.8: HMKILNYQSLVGKKGITKSMLRPAGIVEIEGRRYDVVTRGEFIEPGKMITVDEVQGNRIIVQIERE
Result: label 1

Problem: Dear colleague, could you confirm whether HMSVLLDDLSPREREILQLVVEGHSSTKIAGMLGLASATVDTYRSRLMAKLHIDNLPDLVRFAIRHGLIS has soluble fraction (log2) at or above -0.8?
Result: label 0

Problem: I'd appreciate it if you could say whether HMDKSHYEELGVSRTATHAEIRRAYRHLMRTLHPDSNDGRVDAVRITKVNEAWNVLSQSSSRNAYDKSQV has soluble fraction (log2) at least equal to -0.8.
Result: label 1

----------
assay: soluble fraction after stress (log2 fold change); higher = more stays soluble; pooled small domains, quantitative proteomics; details: stress: 75 degC
Class definitions on soluble fraction (log2): lower bin (below -1), middle bin (-1 to below 0.2), upper bin (0.2 or more)

Sample answers from the record:
HMDPERVVGQTGIVHLRIPARQHNTGKVMIEVQGSLREFDAVSEAEEIPTGTPILIVGRTEEGVFIAQPF = middle bin
HMESLNDRIKLVFKDSGLTQMDISKRLNIAQSSVSGIISGKANPSKRTLADIADRFDVNLEWLRDGTGPMK = upper bin
HMKISQSRKAGKLVLESELKRGGVSLDQYRGGRMSRILELIGVKSLNELLTDLGTGKKTGALVAERFFSGL = middle bin
HMTVSIGSVIARERRLRGDTQQELAERLGVSKAAVSKWEVGQSIPDVTLLPRIAAYFSLTLDEL = lower bin
HMLTLSGPEHAVVRALWPEPELDFDVLIRKTGLPSAQLMTLAMQLEMKKIIRRLPGRRLALMDDIRR = lower bin

Here is another sequence to look at.
Problem: Input HMHTGLAELTDRERDVLRLIATGMTNAAIGSALAYSPSTIRADTVSIYRKLEVRGRAEAAAVAVAAGLTQP ; output its category
Result: lower bin

----------
assay: soluble fraction after stress (log2 fold change); higher = more stays soluble; pooled small domains, quantitative proteomics; conditions: stress: 75 degC
Listed here are sequences together with their documented soluble fraction (log2).

HMWNLPDPVVRPEGNVTVYENFKNTVEVLNREADLVLKFLQNEFGTSANIDDTGRARLTGSFSTDRVSSVI = -0.328
HMSMEIQEIIRQLREKNDWSQEDMAERVGLSKNGYAKIERGETNLNLERLEQIANLFDLSVIDLIEMS = -0.764
HMPEMAIRTLRLRNQRGAAVAAEWSRITASLLELRQVEFVNPVDQLIVLKGPEPWAGVAEELVRQLDV = -2.55
HMAFDESLVRSIQELLSELGYSPGKIDGLLGAKTVAAIKAFELEINKDQLTGEPSEELLIALQLAIRSSKM = -1.81
HMSINTIIAKNLNRLRNERNLSLGQLAELSGVSKVMLSQIEKGDSNPTVNTIWKIASGLNVPYTAILDQP = -0.798
HMKDPSFELMSVAESFYRSGNVDHAVYALEKYLEVYADGDYTDRAHDLLSQARKGLTYPHGYPPLQI = -1.26
HMETGEDSLRRYFNSLPGSASKREILEDNPTVSQRTTERILQKLQAEGFIEKVGAARATRYRKVKQ = 0.259

Pending sequence:
Problem: State, in one line, measured soluble fraction (log2) of HMGPTLTDEEEVVLNLLEKNHPVLLSELKENAGLSNKKWDKAIKGLSAHKLAKVTKTDDGLFVHLS
Result: 0.615

----------
experiment: soluble fraction after stress (log2 fold change); higher = more stays soluble; pooled small domains, quantitative proteomics; settings: stress: 75 degC
Mark NOT MET for soluble fraction (log2) values under -0.08, and MET for everything at or above.

Some entries whose results are on file:
HMTPQVALNDTETAIYEKMKQEKQMLLGELRAQFDISNKLWDTSLKTLTKNQLLAVSKEDDLLFVKL = NOT MET
HMPNGEAYQRFTYENDILEGRFEEWDSLGTDIVKGDYTAGVRHKKWLYYDSEGRRDKFVFLDMDSI = MET

Problem: Reported soluble fraction (log2) reaches at least -0.08 for HMQTFNADDIEPIIKEILQENPKAISDFLTGNENVVKFLLGQVMKNTKGKANPKVIEELLINQLRELNN ?
Result: NOT MET

Problem: Has HMDRVMPVPEALIGMRFDIAVSRMLGVSRSQAAAYIDRGQVSIAGRGSQRSAQKSEKLVQGDSIEVAIA a recorded soluble fraction (log2) greater than or equal to -0.08?
Result: NOT MET

Problem: Form field: soluble fraction (log2) at least -0.08? Entry: HMKELVAGQTVRVHHSIGFGQTGTVTALNSLKTTLPNGLRTNTASILFQNNEKVVLPISNFDIIES
Result: MET

----------
test: soluble fraction after stress (log2 fold change); higher = more stays soluble; pooled small domains, quantitative proteomics; conditions: stress: 75 degC
List of soluble fraction (log2) values.
Number, no unit, nothing else.

The following sequences have reported results that may help.
HMKEDSTIIERIISNLSSASLKTQKAFEYKLTDLMFRFSEGEYEWSSAMEVIREELLPFLNK = 0.0891
HMLVATFGPTTGWEGREIIWDVDRFILVGHGAVPAAGVLDYDRRGQLIWAQPELRAWVVEVDRWETG = -2.22
HMTPNATWQDDAQSLLRDLIQHQPVLIQISAAKRLRDQAEQISRITGGDTVTRDHVEAAGHALGMGVT = -0.0233

Turning now to a further sequence:
Problem: Return reported soluble fraction (log2). Input sequence: HMGEKTVPNVIGQKLATAKQLLEKEGLTVGSTSYNKNQADKDTVLSTDPAPGSHLSEGAKVNLTLSSGA
Result: 0.0786

----------
assay: soluble fraction after stress (log2 fold change); higher = more stays soluble; pooled small domains, quantitative proteomics; conditions: stress: 75 degC
Consider the following sequences and their measured soluble fraction (log2) readings.
API note: the answer field is a bare number with no unit suffix.

Problem: Fill in soluble fraction (log2) for record HMSSLTQREYEIAELVADGLSNKAIAAELSISHTTAARHVANIMNKLGFNSRSQIAAWVADRAQG
Result: 0.0373

Problem: Please look at this sequence and report its soluble fraction (log2): HMILSTNFFRHIVPKEYQTSYGTMKKWLTDHNVIGTNSIPQGIGYRIPTQGLSSTFSFKVVDVLPDR
Result: -0.986

Problem: Tell me measured soluble fraction (log2) for HMVDYYEILGVSPDASRKDIENAWRKKMREAHPDMGGSEDKAQLLNEAHKVLSDESARAEYDASR please.
Result: 0.181

Problem: Using known records, supply soluble fraction (log2) for HMSGHIPGIKIKGVIFFDKGSSSNHIIATTENNSNLKLRVGETVQGAVLKSIHPNHVIFFHHNQLIEVGIG
Result: -4.39

Values compiled from the domain aggregation screens of Martell et al. (2025).
